Numbers sourced from patent US20170319688A1.

- assayed-target: T1, human RSPO3 (human, UniProt Q9BXY4 22-272)
- T1 construct: Recombinant human RSPO3 protein (Genentech); also called huRSPO3; hRSPO3
- T1 sequence: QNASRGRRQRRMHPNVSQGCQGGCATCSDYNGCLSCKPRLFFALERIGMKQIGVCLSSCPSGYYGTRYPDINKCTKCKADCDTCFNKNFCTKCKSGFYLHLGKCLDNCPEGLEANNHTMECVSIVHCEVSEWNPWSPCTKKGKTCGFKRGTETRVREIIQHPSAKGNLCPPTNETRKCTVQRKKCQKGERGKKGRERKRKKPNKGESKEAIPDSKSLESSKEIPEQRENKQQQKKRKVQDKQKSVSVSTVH
- method-summary: SPR (BIAcore T200), RSPO3 immobilized, antibody injected, 25 C, 1:1 Langmuir
Exercise: state measured Kd for each of the binders provided.
Numbers only, in nM.

Answer for every listed entry: what is its Kd? The entries follow.
1. anti-RSPO3 antibody 5D6 (WO2015/058132) (antibody, V domains shown) VH: EVQLQESGPSLVKPSQTLSLTCSVTGDSITSGYWNWIRKFPGNKFEYMGYISYSGKTYQNPSLKSRISITRDTSKNQYHLQLNSVTTEDTATYYCATYYGYGGPWFAYWGQGTLVTVSA VL: DIVLTQSPSSMYASLGERVTITCKASQDIDSYLSWFQQKPGKSPKTLIYLTNRLVDGVPSRFSGSGSGQDYSLTISSLEYEDMGIYYCLHYDEFPLTFGAGTKLEIK
2. chimeric 15F3 (antibody, V domains shown, Chimeric counterpart with the rat 15F3 variable domains) VH: EVQLVESGGGLVQPGRSLKLSCAASGFTFSDYDMAWVRQAPKKGLEWVATIIYDGSRAYFGDSVRGRFTVSRDNTKSTLYLQMDSLRSEDTATYYCTAHDRSFDYWGQGVMVTVSS VL: DIQMTQSPASLSASLGETVSIECLVSEDISNDFVWYQQKSGKSPQLLIYAASRLQDGVPSRFSGSGSGTRFSLRISGMQPEDEAEYFCQQSYKYPPTFGAGTKLELK
3. chimeric 11C10 (antibody, V domains shown, Chimeric counterpart with the rat 11C10 variable domains) VH: EVQLVESGGGLVQPGRSLKLSCAASGFTFSDYDMAWVRQAPKKGLEWVATIIYDGSRTYYRDSVKGRFTISRANAKSTLYLQMDSLRSEDTATYYCATHDKTFDYWGQGVMVTVSS VL: DIQMTQSPASLSASLGETVTIECRASEDIYSDLAWYQQKPGNSPQLLIYDVNSLIHGVPSRFSGSGSGTQFSLKINNLQSEDVASYFCQQYDNYPNTFGAGTKLELK

0.485
0.845
2.67
